assay-info: Selectivity index, ratio of CC50 for human MCF-10A cells and IC50 for human MDA-MB-231 cells
Assay type: toxicity, cell-based, Breast
measurement-conditions: MCF-10A cells versus MDA-MB-231 cells, read-out: Ratio CC50/IC50
Record form. Attribute: selectivity ratio. Fill in for each entry.

Incoming: # query: selectivity ratio of entry CC(C)=CCc1cc(/C=C/C(=O)O)ccc1OC(=O)CCc1ccccc1 [BACCHARIN]
Outgoing: 0.9

Incoming: # query: selectivity ratio of entry `CC(C)=CCc1cc(/C=C/C(=O)N[C@@H](CCCCNC(=O)OC(C)(C)C)C(=O)OCc2ccccc2)ccc1OC(=O)CCc1ccccc1`
Outgoing: > 1.2

Incoming: # query: selectivity ratio of entry `CC(=O)Oc1ccc(/C=C/C(=O)N[C@@H](CCCCNC(=O)OC(C)(C)C)C(=O)OCc2ccccc2)cc1CC=C(C)C`
Outgoing: 0.7

Incoming: # query: selectivity ratio of entry `CC(=O)Oc1ccc(/C=C/C(=O)N[C@@H](CO)C(=O)OCc2ccccc2)cc1CC=C(C)C`
Outgoing: 1.5

Incoming: # query: selectivity ratio of entry `CC(C)=CCc1cc(/C=C/C(=O)N[C@H](C(=O)OCc2ccccc2)[C@@H](C)O)ccc1OC(=O)CCc1ccccc1`
Outgoing: 1

Incoming: # query: selectivity ratio of entry `CC(C)=CCc1cc(/C=C/C(=O)N[C@@H](Cc2ccccc2)C(=O)OCc2ccccc2)ccc1OC(=O)CCc1ccccc1`
Outgoing: 1.1
